B1: tRNA (parent)
chain: CUCUCGGUAGCCAAGUUGGUUUAAGGCGCAAGACUUUAAUUUAUCACUACGAAAUCUUGAGAUCGGGCGUUCGACUCGCCCCCGGGAGAUUUUUUCCUCGAGCAA

Variants of: B1
Experiment: nonsense suppression (GFP-seq) (ratio to wild type); higher = more function; SUP4oc tRNA, yeast GFP reporter sort-seq
Variants at the floor of the assay were thinned out.
Each entry below lists one item and its recorded nonsense suppression value.
Give only the figure.

Below, each entry is followed by its recorded nonsense suppression result.
         mutation_id  recorded_result
0          U21C C27U            0.154
1  U4C A9G G15A A30U           0.0449
2          A24U G61A            0.124
3          G61C G88U           0.0792

Incoming: Suppose we examine the variant U4G A13U ; what nonsense suppression value has been reported?
Outgoing: 0.191

Incoming: Data request, read-out nonsense suppression, for U17G U21G
Outgoing: 0.717

Incoming: Suppose we examine the variant U17C A30G ; what nonsense suppression value has been reported?
Outgoing: 0.326

Incoming: Recorded nonsense suppression for A30G A54U , please?
Outgoing: 1.2

Incoming: Could you share which nonsense suppression value was measured for U57C A87G ?
Outgoing: 0.0399

Incoming: Record request: nonsense suppression value, item U4C C29U
Outgoing: 1.03

Incoming: Consider the variant G28A A60G and give its measured nonsense suppression.
Outgoing: 1.07
